assayExplanation: Viscosity of aqueous solutions
Assay type: physicochemical
conditions: 300 mg I/ml, 37°C
Each record here notes measured Viscosity (mPa.S at 300 mg I/ml) 37°C.

molecule: CN(CC(=O)N(C)c1c(I)c(C(=O)NCC(O)CO)c(I)c(C(=O)NCC(O)CO)c1I)C(=O)c1c(I)c(NC(=O)CO)c(I)c(C(=O)NCC(O)CO)c1I (stereo not shown) [EXAMPLE 11]
Viscosity (mPa.S at 300 mg I/ml) 37°C: 7,0 mPa.S

molecule: CC(=O)Nc1c(I)c(C(=O)NCC(O)CO)c(I)c(C(=O)N(CC(=O)Nc2c(I)c(C(=O)NCC(O)CO)c(I)c(C(=O)NCC(O)CO)c2I)CC(O)CO)c1I (stereo not shown) [EXAMPLE 36]
Viscosity (mPa.S at 300 mg I/ml) 37°C: 8,3-8,8 mPa.S

molecule: COCC(=O)Nc1c(I)c(C(=O)NCC(O)CO)c(I)c(C(=O)N(C)CC(=O)N(C)c2c(I)c(C(=O)NC(CO)C(O)CO)c(I)c(C(=O)NC(CO)C(O)CO)c2I)c1I (stereo not shown) [EXAMPLE 9]
Viscosity (mPa.S at 300 mg I/ml) 37°C: 8,2 mPa.S

Here is the next item to consider.
Exercise: May I ask what Viscosity (mPa.S at 300 mg I/ml) 37°C has been recorded for CN(C(=O)CC(=O)N(C)c1c(I)c(C(=O)NC(CO)C(O)CO)c(I)c(C(=O)NC(CO)C(O)CO)c1I)c1c(I)c(C(=O)NC(CO)C(O)CO)c(I)c(C(=O)NC(CO)C(O)CO)c1I (stereo not shown) [IOTROLAN, reference compound] ?
Key: 8,1-9,2 mPa.S

====

assayExplanation: Osmolality of aqueous solutions
Format: physicochemical
conditions: 300mg I/ml
Doc: threshold 200 mosm/kg (exclusive). Items with Osmolality mosm/kg at 300mg I/ml beneath it return Condition met; others return Condition not met.

Use these answered entries as a reference point.
compound: CC(=O)Nc1c(I)c(C(=O)NCC(O)CO)c(I)c(C(=O)N(CC(=O)N(C)c2c(I)c(C(=O)NCC(O)CO)c(I)c(C(=O)NCC(O)CO)c2I)CC(O)CO)c1I (stereo not drawn) [EXAMPLE 23]
assignedCategory: Condition met

compound: COCC(=O)N(CCO)c1c(I)c(C(=O)NCC(O)CO)c(I)c(C(=O)N(CCO)CC(=O)N(CCO)c2c(I)c(C(=O)NCCO)c(I)c(C(=O)NCCO)c2I)c1I (stereo not drawn) [EXAMPLE 32]
assignedCategory: Condition met

compound: COCC(=O)Nc1c(I)c(C(=O)NCC(=O)Nc2c(I)c(C(=O)N(C)CC(O)CO)c(I)c(C(=O)N(C)CC(O)CO)c2I)c(I)c(C(=O)NCC(O)CO)c1I (stereo not drawn) [EXAMPLE 1]
assignedCategory: Condition not met

Exercise: Strictly below 200 mosm/kg: is that where Osmolality mosm/kg at 300mg I/ml of COCC(=O)Nc1c(I)c(C(=O)NCC(O)CO)c(I)c(C(=O)N(CC(=O)N(C)c2c(I)c(C(=O)NCC(O)CO)c(I)c(C(=O)NCC(O)CO)c2I)CC(O)COC)c1I (stereo not drawn) [EXAMPLE 39] sits?
Key: Condition met

Exercise: And what about the compound CN(CC(=O)N(C)c1c(I)c(C(=O)NC(CO)C(O)CO)c(I)c(C(=O)NC(CO)C(O)CO)c1I)C(=O)c1c(I)c(NC(=O)CO)c(I)c(C(=O)NCC(O)CO)c1I (stereo not drawn) [EXAMPLE 8] ?
Key: Condition met

Exercise: And what about the compound COCC(=O)Nc1c(I)c(C(=O)NCC(=O)N(C)c2c(I)c(C(=O)NC(CO)C(O)CO)c(I)c(C(=O)NC(CO)C(O)CO)c2I)c(I)c(C(=O)NCC(O)CO)c1I (stereo not drawn) [EXAMPLE 4] ?
Key: Condition not met

Exercise: And what about the compound COCC(=O)Nc1c(I)c(C(=O)N(C)CC(=O)N(C)c2c(I)c(C(=O)NCC(O)CO)c(I)c(C(=O)NCC(O)CO)c2I)c(I)c(C(=O)N(CCO)CC(O)CO)c1I (stereo not drawn) [EXAMPLE 41] ?
Key: Condition met

Exercise: And what about the compound COCC(=O)Nc1c(I)c(C(=O)NCC(O)CO)c(I)c(C(=O)N(C)CC(=O)N(C)c2c(I)c(C(=O)NC(CO)C(O)CO)c(I)c(C(=O)NC(CO)C(O)CO)c2I)c1I (stereo not drawn) [EXAMPLE 9] ?
Key: Condition not met

Exercise: And what about the compound COCCN(C(=O)CO)c1c(I)c(C(=O)NCC(=O)N(CCOC)c2c(I)c(C(=O)NCC(O)CO)c(I)c(C(=O)NCC(O)CO)c2I)c(I)c(C(=O)NCC(O)CO)c1I (stereo not drawn) [EXAMPLE 40] ?
Key: Condition met

Exercise: And what about the compound COCC(=O)Nc1c(I)c(C(=O)NCC(=O)Nc2c(I)c(C(=O)N(C)CC(O)CO)c(I)c(C(=O)N(C)CC(O)CO)c2I)c(I)c(C(=O)NC(CO)C(O)CO)c1I (stereo not drawn) [EXAMPLE 5] ?
Key: Condition met

Exercise: And what about the compound O=C(NCCO)c1c(I)c(C(=O)NCCO)c(I)c(N(CCO)C(=O)CN(CCO)C(=O)c2c(I)c(C(=O)NCC(O)CO)c(I)c(N(CCO)C(=O)CO)c2I)c1I (stereo not drawn) [EXAMPLE 16] ?
Key: Condition met

Exercise: And what about the compound COCC(=O)Nc1c(I)c(C(=O)NCC(=O)Nc2c(I)c(C(=O)NC(CO)C(O)CO)c(I)c(C(=O)NC(CO)C(O)CO)c2I)c(I)c(C(=O)NC(CO)C(O)CO)c1I (stereo not drawn) [EXAMPLE 7] ?
Key: Condition met

Exercise: And what about the compound COCC(=O)Nc1c(I)c(C(=O)NCC(=O)Nc2c(I)c(C(=O)NCC(O)CO)c(I)c(C(=O)NCC(O)CO)c2I)c(I)c(C(=O)NC(CO)C(O)CO)c1I (stereo not drawn) [EXAMPLE 6] ?
Key: Condition met

Exercise: And what about the compound CN(C(=O)CNC(=O)c1c(I)c(NC(=O)CO)c(I)c(C(=O)NCC(O)CO)c1I)c1c(I)c(C(=O)NC(CO)C(O)CO)c(I)c(C(=O)NC(CO)C(O)CO)c1I (stereo not drawn) [EXAMPLE 3] ?
Key: Condition met

Exercise: And what about the compound COCC(=O)Nc1c(I)c(C(=O)NCC(O)CO)c(I)c(C(=O)N(CCO)CC(=O)Nc2c(I)c(C(=O)NC(CO)C(O)CO)c(I)c(C(=O)NC(CO)C(O)CO)c2I)c1I (stereo not drawn) [EXAMPLE 22] ?
Key: Condition met

Exercise: And what about the compound COCC(=O)Nc1c(I)c(C(=O)NCC(O)CO)c(I)c(C(=O)N(C)CC(=O)N(C)c2c(I)c(C(=O)N(C)CC(O)CO)c(I)c(C(=O)N(C)CC(O)CO)c2I)c1I (stereo not drawn) [EXAMPLE 25] ?
Key: Condition met

Exercise: And what about the compound COCC(=O)Nc1c(I)c(C(=O)NCC(O)CO)c(I)c(C(=O)N(CC(=O)Nc2c(I)c(C(=O)NCC(O)CO)c(I)c(C(=O)NCC(O)CO)c2I)CC(O)CO)c1I (stereo not drawn) [EXAMPLE 15] ?
Key: Condition met

Exercise: And what about the compound CN(CC(O)CO)C(=O)c1c(I)c(C(=O)N(C)CC(O)CO)c(I)c(N(C)C(=O)CNC(=O)c2c(I)c(NC(=O)CO)c(I)c(C(=O)NCC(O)CO)c2I)c1I (stereo not drawn) [EXAMPLE 26] ?
Key: Condition met

Exercise: And what about the compound CN(CC(O)CO)C(=O)c1c(I)c(NC(=O)CNC(=O)c2c(I)c(NC(=O)CO)c(I)c(C(=O)NCC(O)CO)c2I)c(I)c(C(=O)N(C)CC(O)CO)c1I (stereo not drawn) [EXAMPLE 2] ?
Key: Condition met

Exercise: And what about the compound COCC(=O)N(CCO)c1c(I)c(C(=O)NCC(O)CO)c(I)c(C(=O)N(C)CC(=O)N(CCO)c2c(I)c(C(=O)NCC(O)CO)c(I)c(C(=O)NCC(O)CO)c2I)c1I (stereo not drawn) [EXAMPLE 35] ?
Key: Condition not met

====

assayExplanation: Viscosity of aqueous solutions
Assay type: physicochemical
conditions: 30°C, 300mg I/ml
readoutName: Viscosity mPa s (30°C) at 300mg I/ml

Solved entries (count: 6):
compound: O=C(CN(CC(O)CO)C(=O)c1c(I)c(NC(=O)CO)c(I)c(C(=O)NCC(O)CO)c1I)Nc1c(I)c(C(=O)NCC(O)CO)c(I)c(C(=O)NCC(O)CO)c1I (centres unmarked)
readoutName: Viscosity mPa s (30°C) at 300mg I/ml
assayResult: 7,2 mPa s
--
compound: CC(=O)Nc1c(I)c(C(=O)NCC(O)CO)c(I)c(C(=O)N(C)CC(=O)N(C)c2c(I)c(C(=O)NCC(O)CO)c(I)c(C(=O)NCC(O)CO)c2I)c1I (centres unmarked)
readoutName: Viscosity mPa s (30°C) at 300mg I/ml
assayResult: 9,9 mPa s
--
compound: COCC(=O)Nc1c(I)c(C(=O)NCC(=O)Nc2c(I)c(C(=O)NC(CO)C(O)CO)c(I)c(C(=O)NC(CO)C(O)CO)c2I)c(I)c(C(=O)NC(CO)C(O)CO)c1I (centres unmarked)
readoutName: Viscosity mPa s (30°C) at 300mg I/ml
assayResult: 10,5 mPa s
--
compound: COCC(=O)Nc1c(I)c(C(=O)NCC(O)CO)c(I)c(C(=O)N(CC(=O)N(C)c2c(I)c(C(=O)NCC(O)CO)c(I)c(C(=O)NCC(O)CO)c2I)CC(O)COC)c1I (centres unmarked)
readoutName: Viscosity mPa s (30°C) at 300mg I/ml
assayResult: 9,6 mPa s
--
compound: COCC(=O)N(CCO)c1c(I)c(C(=O)NCC(O)CO)c(I)c(C(=O)N(C)CC(=O)N(CCO)c2c(I)c(C(=O)NCC(O)CO)c(I)c(C(=O)NCC(O)CO)c2I)c1I (centres unmarked)
readoutName: Viscosity mPa s (30°C) at 300mg I/ml
assayResult: 8,2 mPa s
--
compound: COCC(=O)N(CCO)c1c(I)c(C(=O)NCC(O)CO)c(I)c(C(=O)N(CCO)CC(=O)N(CCO)c2c(I)c(C(=O)NCCO)c(I)c(C(=O)NCCO)c2I)c1I (centres unmarked)
readoutName: Viscosity mPa s (30°C) at 300mg I/ml
assayResult: 8,2 mPa s

Exercise: May I ask what Viscosity mPa s (30°C) at 300mg I/ml has been recorded for COCC(=O)Nc1c(I)c(C(=O)NCC(O)CO)c(I)c(C(=O)N(C)CC(=O)N(C)c2c(I)c(C(=O)NC(CO)C(O)CO)c(I)c(C(=O)NC(CO)C(O)CO)c2I)c1I (centres unmarked) ?
Key: 8,2 mPa s

Exercise: And what about the compound COCC(=O)Nc1c(I)c(C(=O)NCC(=O)Nc2c(I)c(C(=O)NCC(O)CO)c(I)c(C(=O)NCC(O)CO)c2I)c(I)c(C(=O)NC(CO)C(O)CO)c1I (centres unmarked) ?
Key: 9,5 mPa s

Exercise: And what about the compound CC(=O)Nc1c(I)c(C(=O)NCC(O)CO)c(I)c(C(=O)N(C)CC(=O)N(C)c2c(I)c(C(=O)NC(CO)C(O)CO)c(I)c(C(=O)NC(CO)C(O)CO)c2I)c1I (centres unmarked) ?
Key: 9,1 mPa s

Exercise: And what about the compound COCC(=O)Nc1c(I)c(C(=O)NCC(=O)Nc2c(I)c(C(=O)N(C)CC(O)CO)c(I)c(C(=O)N(C)CC(O)CO)c2I)c(I)c(C(=O)NC(CO)C(O)CO)c1I (centres unmarked) ?
Key: 10,2 mPa s

Exercise: And what about the compound CN(CC(=O)N(C)c1c(I)c(C(=O)N(C)CC(O)CO)c(I)c(C(=O)N(C)CC(O)CO)c1I)C(=O)c1c(I)c(NC(=O)CO)c(I)c(C(=O)NCC(O)CO)c1I (centres unmarked) ?
Key: 7,1 mPa s
